target: CLR/RAMP1 receptor (UniProt Q16602 23-461; O60894 27-148, limits assumed); assay: cell-based or functional assay
Sequence (Q16602 23-461 limits assumed, chain 1 of 2): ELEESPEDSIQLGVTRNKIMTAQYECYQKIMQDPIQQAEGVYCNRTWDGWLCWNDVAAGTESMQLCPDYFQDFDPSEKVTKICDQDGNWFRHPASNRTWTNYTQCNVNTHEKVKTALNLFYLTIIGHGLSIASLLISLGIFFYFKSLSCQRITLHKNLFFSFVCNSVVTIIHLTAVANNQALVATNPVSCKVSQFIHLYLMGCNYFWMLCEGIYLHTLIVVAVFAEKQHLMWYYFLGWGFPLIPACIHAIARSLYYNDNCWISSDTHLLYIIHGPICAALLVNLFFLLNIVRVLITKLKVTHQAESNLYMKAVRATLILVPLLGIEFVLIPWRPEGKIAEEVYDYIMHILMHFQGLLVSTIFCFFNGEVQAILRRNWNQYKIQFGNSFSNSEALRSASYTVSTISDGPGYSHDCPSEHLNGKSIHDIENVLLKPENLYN
Sequence (O60894 27-148 limits assumed, chain 2 of 2): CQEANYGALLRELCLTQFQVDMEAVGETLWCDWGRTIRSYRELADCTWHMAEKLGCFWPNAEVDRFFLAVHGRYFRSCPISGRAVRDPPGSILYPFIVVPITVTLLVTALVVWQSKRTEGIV
* marks the point of attachment. Palmitoyl = CCCCCCCCCCCCCCCC(=O)*
Can you tell me CLR/RAMP1 EC50 for the items I'm about to list?
Reply with the number and its unit after it.

Palmitoyl-KGCRFGTCTVQKLAHQIYQFTDKGRQDSAPVDPSSPHSY-NH2 (ends and bridges not checked) [SEQ ID NO: 36] = 600 pM
Palmitoyl-KTKKTLRTGCRFGTCTVQKLAHQIYQFTDKDKDNVAPVDPSSPHSY-NH2 (ends and bridges not checked) [SEQ ID NO: 40] = 2000 pM
Ac-KGCRFGTCTVQKLAHQIYQFTDKDKDNSAPVDPSSPHSY-NH2 (ends and bridges not checked) [SEQ ID NO: 59] = 31000 pM
KGCRFGTCTVQKLAHQIYQFTDKDKDNVAPRSKISPQGY (Pal- at N-terminus; K(Pal); -NH2) [SEQ ID NO: 73] = 34000 pM

# per-item lookup of CLR/RAMP1 EC50; items listed below
1. Palmitoyl-KGCRFGTCTVQKLAHQIYQFTPAGRQDSAPVDPSSPHSY-NH2 (cysteine pairing not given here) [SEQ ID NO: 31]
2. Ac-TK(Palmitoyl)KTLRTGCRFGTCTVQKLAHQIYQFTDKDKDNVAPVDPSSPHSY-NH2 (ends and bridges not checked) [SEQ ID NO: 41]
3. Palmitoyl-KGCRFGTCTVQKLAHQIYQFTDKDKDNSAPVDPSSPHSY-NH2 (cysteine pairing not given here) [SEQ ID NO: 30]

Solution:
1: 800 pM; 2: 400 pM; 3: 400 pM
